- measured.on: UniProt:Q9Y243
pIC50: −log10 of the molar value.

input.smiles	pIC50
Cc1cn(CCN2CCN(c3ccccc3-c3cc(C#N)cc(C(=O)NCCCN4CCCC4)c3)CC2)c2ccccc12	< 4.70

* * *

- measured.on: hDCAMKL2 (Homo sapiens)
- Sequence (Q8N568 whole entry): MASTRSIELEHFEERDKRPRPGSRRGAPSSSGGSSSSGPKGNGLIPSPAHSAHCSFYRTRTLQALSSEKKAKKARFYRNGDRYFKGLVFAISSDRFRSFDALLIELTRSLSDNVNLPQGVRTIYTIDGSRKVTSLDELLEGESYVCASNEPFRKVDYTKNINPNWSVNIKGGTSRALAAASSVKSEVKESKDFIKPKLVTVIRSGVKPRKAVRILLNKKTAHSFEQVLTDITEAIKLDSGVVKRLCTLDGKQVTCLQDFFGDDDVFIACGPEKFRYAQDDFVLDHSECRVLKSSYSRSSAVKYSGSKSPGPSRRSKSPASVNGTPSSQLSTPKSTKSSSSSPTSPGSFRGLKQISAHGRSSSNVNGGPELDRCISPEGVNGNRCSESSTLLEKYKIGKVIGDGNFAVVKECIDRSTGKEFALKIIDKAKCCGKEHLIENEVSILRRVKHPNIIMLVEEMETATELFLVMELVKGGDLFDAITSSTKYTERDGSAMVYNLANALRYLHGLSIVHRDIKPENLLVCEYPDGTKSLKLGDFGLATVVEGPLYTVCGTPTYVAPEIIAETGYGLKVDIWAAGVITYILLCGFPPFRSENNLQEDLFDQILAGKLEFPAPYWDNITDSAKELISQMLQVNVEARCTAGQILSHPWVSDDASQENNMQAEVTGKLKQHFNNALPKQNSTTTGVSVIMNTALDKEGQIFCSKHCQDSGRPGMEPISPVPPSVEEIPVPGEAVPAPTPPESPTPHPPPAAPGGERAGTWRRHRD
pIC50: −log10 of the molar value.
measure: pIC50

input.smiles	result
Cc1cn(CCN2CCN(c3ccccc3-c3cc(C#N)cc(C(=O)NCCCN4CCCC4)c3)CC2)c2ccccc12	< 4.70

* * *

- measured.on: UniProt:Q9H3Y6
- Sequence (Q9H3Y6 whole entry): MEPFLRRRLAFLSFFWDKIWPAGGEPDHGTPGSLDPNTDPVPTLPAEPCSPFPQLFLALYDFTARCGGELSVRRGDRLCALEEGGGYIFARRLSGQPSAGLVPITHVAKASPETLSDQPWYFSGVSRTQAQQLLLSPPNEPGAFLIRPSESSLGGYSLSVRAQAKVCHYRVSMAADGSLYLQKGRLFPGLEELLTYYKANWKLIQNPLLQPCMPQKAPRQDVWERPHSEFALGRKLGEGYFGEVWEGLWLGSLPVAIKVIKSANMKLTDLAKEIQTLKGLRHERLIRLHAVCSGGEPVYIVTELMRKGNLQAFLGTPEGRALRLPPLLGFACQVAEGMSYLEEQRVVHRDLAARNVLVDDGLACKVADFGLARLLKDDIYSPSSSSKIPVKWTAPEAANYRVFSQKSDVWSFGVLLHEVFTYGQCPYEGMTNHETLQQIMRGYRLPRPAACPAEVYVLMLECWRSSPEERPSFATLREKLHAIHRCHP

input.smiles	IC50
Cc1cn(CCN2CCN(c3ccccc3-c3cc(C#N)cc(C(=O)NCCCN4CCCC4)c3)CC2)c2ccccc12	> 20 µM

* * *

- measured.on: hEGFR(L747-S752del, P753S) (Homo sapiens, UniProt P00533, DEL747-752/P753S)
- Sequence (P00533 with tags, fused parts or gaps DEL747-752/P753S): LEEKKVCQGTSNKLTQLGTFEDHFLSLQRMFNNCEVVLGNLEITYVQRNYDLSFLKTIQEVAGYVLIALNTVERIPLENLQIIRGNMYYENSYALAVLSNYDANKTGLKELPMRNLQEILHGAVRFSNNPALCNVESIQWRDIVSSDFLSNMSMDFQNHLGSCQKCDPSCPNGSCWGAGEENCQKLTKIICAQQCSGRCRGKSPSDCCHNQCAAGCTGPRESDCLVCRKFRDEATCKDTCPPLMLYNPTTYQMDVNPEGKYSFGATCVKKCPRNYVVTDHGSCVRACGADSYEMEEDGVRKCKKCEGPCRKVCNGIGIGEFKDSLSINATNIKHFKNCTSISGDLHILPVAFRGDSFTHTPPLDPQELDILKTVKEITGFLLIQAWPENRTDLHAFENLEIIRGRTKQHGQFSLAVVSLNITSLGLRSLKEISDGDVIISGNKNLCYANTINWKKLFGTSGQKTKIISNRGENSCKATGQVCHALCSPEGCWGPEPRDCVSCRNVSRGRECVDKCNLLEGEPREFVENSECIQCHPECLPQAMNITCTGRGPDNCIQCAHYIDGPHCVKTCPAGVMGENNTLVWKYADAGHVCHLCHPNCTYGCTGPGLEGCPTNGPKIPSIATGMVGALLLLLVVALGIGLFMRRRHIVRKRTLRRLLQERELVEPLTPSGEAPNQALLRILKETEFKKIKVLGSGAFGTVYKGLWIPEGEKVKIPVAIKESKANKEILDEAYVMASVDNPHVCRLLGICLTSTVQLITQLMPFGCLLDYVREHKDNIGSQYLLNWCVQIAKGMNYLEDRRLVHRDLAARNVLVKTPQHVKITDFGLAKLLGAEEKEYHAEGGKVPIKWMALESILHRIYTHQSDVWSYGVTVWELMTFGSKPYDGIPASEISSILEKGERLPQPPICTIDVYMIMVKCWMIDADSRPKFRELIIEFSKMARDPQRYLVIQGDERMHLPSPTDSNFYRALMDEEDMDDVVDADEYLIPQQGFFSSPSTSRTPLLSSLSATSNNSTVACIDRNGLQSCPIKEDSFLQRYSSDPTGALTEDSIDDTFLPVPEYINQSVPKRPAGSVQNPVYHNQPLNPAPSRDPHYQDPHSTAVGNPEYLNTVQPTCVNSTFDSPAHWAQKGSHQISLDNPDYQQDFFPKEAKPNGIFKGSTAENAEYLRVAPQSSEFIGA
- assay.name: KINOMEscan

input.smiles	measured.on	IC50
Cc1cn(CCN2CCN(c3ccccc3-c3cc(C#N)cc(C(=O)NCCCN4CCCC4)c3)CC2)c2ccccc12	hEGFR(L747-S752del, P753S) (Homo sapiens, UniProt P00533, DEL747-752/P753S)	> 20 µM

* * *

- measured.on: hINSRR (Homo sapiens, UniProt P14616)
- Sequence (P14616 27-1297): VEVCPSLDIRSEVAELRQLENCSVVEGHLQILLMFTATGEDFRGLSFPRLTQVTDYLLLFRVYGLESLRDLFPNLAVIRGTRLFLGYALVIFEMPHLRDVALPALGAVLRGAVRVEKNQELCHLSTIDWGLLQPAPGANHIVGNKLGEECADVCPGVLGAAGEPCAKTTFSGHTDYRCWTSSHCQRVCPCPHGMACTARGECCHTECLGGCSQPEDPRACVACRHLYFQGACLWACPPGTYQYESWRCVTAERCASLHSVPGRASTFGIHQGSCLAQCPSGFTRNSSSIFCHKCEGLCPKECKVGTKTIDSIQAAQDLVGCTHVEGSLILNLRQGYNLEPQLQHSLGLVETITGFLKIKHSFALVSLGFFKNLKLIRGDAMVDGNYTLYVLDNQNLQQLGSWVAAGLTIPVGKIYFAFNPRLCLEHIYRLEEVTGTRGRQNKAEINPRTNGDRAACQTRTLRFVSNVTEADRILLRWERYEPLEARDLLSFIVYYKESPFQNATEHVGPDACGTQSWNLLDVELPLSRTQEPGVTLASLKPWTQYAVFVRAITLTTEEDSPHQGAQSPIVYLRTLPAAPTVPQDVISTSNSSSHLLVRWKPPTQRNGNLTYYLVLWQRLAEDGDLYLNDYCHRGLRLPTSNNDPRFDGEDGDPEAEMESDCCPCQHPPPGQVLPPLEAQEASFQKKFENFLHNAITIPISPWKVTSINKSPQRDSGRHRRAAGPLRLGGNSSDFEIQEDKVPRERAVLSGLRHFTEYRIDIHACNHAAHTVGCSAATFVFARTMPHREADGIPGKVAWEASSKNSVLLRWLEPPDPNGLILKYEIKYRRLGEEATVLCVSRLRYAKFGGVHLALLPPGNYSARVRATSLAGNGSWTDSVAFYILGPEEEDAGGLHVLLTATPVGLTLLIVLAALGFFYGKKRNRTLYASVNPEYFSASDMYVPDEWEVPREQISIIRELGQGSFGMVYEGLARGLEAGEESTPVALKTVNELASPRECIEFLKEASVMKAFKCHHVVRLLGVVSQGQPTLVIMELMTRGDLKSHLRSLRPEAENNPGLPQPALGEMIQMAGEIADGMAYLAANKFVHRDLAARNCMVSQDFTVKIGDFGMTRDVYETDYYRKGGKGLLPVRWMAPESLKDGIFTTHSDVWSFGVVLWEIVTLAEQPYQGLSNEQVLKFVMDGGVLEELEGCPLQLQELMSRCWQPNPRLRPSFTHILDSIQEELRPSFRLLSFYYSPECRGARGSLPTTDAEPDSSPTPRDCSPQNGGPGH
measure: IC50

compound	result
Cc1cn(CCN2CCN(c3ccccc3-c3cc(C#N)cc(C(=O)NCCCN4CCCC4)c3)CC2)c2ccccc12 [LLY-507]	> 20 µM

* * *

- measured.on: hIGF1R (Homo sapiens)
- Construct: purchased DiscoverX (KINOMEscan panel)
- Sequence (P08069 31-1367): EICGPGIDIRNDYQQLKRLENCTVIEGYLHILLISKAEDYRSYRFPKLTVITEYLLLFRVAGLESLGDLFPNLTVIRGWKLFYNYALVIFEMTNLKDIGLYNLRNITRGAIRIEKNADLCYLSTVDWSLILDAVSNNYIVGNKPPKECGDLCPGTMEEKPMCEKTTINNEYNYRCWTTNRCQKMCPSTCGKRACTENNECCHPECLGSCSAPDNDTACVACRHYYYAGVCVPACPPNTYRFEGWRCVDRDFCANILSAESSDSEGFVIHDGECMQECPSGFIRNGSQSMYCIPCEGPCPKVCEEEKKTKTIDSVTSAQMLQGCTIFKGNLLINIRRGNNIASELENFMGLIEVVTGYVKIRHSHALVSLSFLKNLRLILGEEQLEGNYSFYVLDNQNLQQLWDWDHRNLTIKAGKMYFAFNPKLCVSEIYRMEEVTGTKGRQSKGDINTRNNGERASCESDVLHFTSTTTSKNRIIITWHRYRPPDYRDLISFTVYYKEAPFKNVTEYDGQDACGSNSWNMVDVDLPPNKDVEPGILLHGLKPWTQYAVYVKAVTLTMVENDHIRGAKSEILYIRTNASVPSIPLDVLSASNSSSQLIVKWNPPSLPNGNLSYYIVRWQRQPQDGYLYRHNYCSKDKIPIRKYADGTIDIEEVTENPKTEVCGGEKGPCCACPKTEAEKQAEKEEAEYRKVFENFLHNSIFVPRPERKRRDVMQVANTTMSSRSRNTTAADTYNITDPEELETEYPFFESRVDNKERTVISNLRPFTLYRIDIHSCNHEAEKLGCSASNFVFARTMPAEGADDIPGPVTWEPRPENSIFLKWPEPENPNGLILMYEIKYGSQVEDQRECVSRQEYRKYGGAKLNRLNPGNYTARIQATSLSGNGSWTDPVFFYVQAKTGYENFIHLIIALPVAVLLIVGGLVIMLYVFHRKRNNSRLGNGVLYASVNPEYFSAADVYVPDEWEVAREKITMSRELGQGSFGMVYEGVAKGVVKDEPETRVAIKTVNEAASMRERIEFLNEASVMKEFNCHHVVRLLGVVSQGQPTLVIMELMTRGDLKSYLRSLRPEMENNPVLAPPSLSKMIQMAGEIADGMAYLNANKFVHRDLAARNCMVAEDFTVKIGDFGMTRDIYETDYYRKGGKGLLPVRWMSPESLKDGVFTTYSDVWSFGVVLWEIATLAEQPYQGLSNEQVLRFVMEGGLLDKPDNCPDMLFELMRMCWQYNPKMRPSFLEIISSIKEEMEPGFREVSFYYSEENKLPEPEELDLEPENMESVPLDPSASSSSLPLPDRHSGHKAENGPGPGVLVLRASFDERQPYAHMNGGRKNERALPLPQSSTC
- assay.name: KINOMEscan
- Type: binding
pIC50: −log10 of the molar value.
measure: pIC50

input.smiles	measure	result
Cc1cn(CCN2CCN(c3ccccc3-c3cc(C#N)cc(C(=O)NCCCN4CCCC4)c3)CC2)c2ccccc12	pIC50	< 4.70

* * *

Target sequence: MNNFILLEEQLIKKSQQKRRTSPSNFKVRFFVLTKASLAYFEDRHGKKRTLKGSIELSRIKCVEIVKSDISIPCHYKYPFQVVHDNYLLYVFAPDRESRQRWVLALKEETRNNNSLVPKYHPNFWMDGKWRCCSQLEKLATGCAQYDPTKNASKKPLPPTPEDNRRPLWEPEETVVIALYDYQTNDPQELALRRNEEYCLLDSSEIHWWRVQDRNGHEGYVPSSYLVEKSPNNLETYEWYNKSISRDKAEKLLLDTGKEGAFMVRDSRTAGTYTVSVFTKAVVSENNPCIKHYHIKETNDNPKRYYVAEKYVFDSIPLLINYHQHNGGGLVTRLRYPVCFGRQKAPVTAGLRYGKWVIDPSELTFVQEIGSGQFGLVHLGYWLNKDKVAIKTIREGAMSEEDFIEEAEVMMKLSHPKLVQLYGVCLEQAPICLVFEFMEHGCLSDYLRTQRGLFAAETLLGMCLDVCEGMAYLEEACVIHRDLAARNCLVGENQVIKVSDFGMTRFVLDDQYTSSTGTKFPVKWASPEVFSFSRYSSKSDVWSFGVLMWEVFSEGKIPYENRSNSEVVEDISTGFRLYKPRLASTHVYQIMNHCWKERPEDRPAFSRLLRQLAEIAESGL
pIC50: −log10 of the molar value.
measure: pIC50

input.smiles	result
Cc1cn(CCN2CCN(c3ccccc3-c3cc(C#N)cc(C(=O)NCCCN4CCCC4)c3)CC2)c2ccccc12	< 4.70

Source of measurements: paper PMC4447944
